Molecular target: human MCH-2R (human, UniProt Q969V1 1-340)
Sequence (Q969V1 whole entry): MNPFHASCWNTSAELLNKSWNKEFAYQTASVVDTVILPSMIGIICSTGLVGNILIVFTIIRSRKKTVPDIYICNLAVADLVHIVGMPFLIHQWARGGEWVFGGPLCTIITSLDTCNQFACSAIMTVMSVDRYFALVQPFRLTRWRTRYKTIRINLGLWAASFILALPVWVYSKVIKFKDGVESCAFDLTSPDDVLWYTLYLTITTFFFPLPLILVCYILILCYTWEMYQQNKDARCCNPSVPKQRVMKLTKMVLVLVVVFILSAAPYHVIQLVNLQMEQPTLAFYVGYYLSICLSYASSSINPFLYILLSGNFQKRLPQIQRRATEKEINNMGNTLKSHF
Experiment: cell-based or functional assay
Measured endpoint: EC50, aequorin bioluminescence (µM)
# output: bare number, implied unit µM

{"Binder": "XCXLNRVYRPC (HELM PEPTIDE1{[ac].[dR].C.[Nle].L.N.R.V.Y.R.P.C.[am]}$PEPTIDE1,PEPTIDE1,3:R3-12:R3$$$V2.0; SMILES CCCC[C@@H]1NC(=O)[C@@H](NC(=O)[C@@H](CCCNC(=N)N)NC(C)=O)CSSC[C@@H](C(N)=O)NC(=O)[C@@H]2CCCN2C(=O)[C@H](CCCNC(=N)N)NC(=O)[C@H](Cc2ccc(O)cc2)NC(=O)[C@H](C(C)C)NC(=O)[C@H](CCCNC(=N)N)NC(=O)[C@H](CC(N)=O)NC(=O)[C@H](CC(C)C)NC1=O) [SEQ. ID. NO. 31 (D-Arg^6, Nle^8, Asn^10 analog of Ac-hMCH(6-16)-NH2)]", "Measured endpoint": "EC50, aequorin bioluminescence", "Numeric readout": 5.5}

Now take the following binder into account.
Task: Quick one: EC50, aequorin bioluminescence for XCMLNRVYRPC (HELM PEPTIDE1{[ac].[dR].C.M.L.N.R.V.Y.R.P.C.[am]}$PEPTIDE1,PEPTIDE1,3:R3-12:R3$$$V2.0; SMILES CSCC[C@@H]1NC(=O)[C@@H](NC(=O)[C@@H](CCCNC(=N)N)NC(C)=O)CSSC[C@@H](C(N)=O)NC(=O)[C@@H]2CCCN2C(=O)[C@H](CCCNC(=N)N)NC(=O)[C@H](Cc2ccc(O)cc2)NC(=O)[C@H](C(C)C)NC(=O)[C@H](CCCNC(=N)N)NC(=O)[C@H](CC(N)=O)NC(=O)[C@H](CC(C)C)NC1=O) [SEQ. ID. NO. 29 (D-Arg^6, Asn^10 analog of Ac-hMCH(6-16)-NH2)] ?
Result: 8.4

// provenance: patent US20050020492A1
